FYI, the data here is from patent US8802597B2.

- System: windgrass (Apera spica-venti)
- protocol_details: Test C postemergence
- Format: in vivo
- condition_summary: 31 g ai/ha
measured_property: Plant response rating (scale of 0 to 100), Windgrass
API note: the answer field is a bare number with no unit suffix.

Examples with answers:
{"chemical_structure": "COC(=O)c1nc(C2CC2)nc(N)c1Br", "value_measured": 65}
{"chemical_structure": "COC(=O)c1nc(C2CC2)nc(N=CN(C)C)c1Br", "value_measured": 40}
{"chemical_structure": "Nc1nc(-c2ccc(Cl)cc2)nc(C(=O)O)c1Cl", "value_measured": 60}

API: the following record is the query input.
**Q:** Look up Plant response rating (scale of 0 to 100), Windgrass: CNc1nc(C2CC2)nc(C(=O)OC)c1Cl
**A:** 40
